METHOD NOTES: AUC(0 to t) in human at 25 mg/kg, po administered as single dose
Type: ADME, organism-based
Design: dose 25 mg/kg, route po
STUDY CONDITIONS: in vivo
READOUT: AUC(0-t) (ng·h/mL)
Answers are plain numbers, in ng·h/mL.

Looking for the measured AUC(0-t) of Cc1ccc([C@@H]2C[C@H](CN[C@H](C)c3cccc4ccccc34)Oc3ccccc32)cc1C(=O)O.Cl , can you help?
2930

----------
METHOD NOTES: Oral bioavailability in BALB/c mouse at 10 mg/kg measured upto 24 hrs by LC/MS-MS analysis
Type: ADME, organism-based
STUDY CONDITIONS: in vivo
READOUT: bioavailability (%)
One number for each entry, in %.

Request the reported bioavailability associated with Cc1ccc([C@@H]2C[C@H](CN[C@H](C)c3cccc4ccccc34)Oc3ccccc32)cc1C(=O)O.Cl
100

----------
MEASURED ON: CYP2D6 (Homo sapiens, UniProt P10635)
Sequence (P10635 whole entry): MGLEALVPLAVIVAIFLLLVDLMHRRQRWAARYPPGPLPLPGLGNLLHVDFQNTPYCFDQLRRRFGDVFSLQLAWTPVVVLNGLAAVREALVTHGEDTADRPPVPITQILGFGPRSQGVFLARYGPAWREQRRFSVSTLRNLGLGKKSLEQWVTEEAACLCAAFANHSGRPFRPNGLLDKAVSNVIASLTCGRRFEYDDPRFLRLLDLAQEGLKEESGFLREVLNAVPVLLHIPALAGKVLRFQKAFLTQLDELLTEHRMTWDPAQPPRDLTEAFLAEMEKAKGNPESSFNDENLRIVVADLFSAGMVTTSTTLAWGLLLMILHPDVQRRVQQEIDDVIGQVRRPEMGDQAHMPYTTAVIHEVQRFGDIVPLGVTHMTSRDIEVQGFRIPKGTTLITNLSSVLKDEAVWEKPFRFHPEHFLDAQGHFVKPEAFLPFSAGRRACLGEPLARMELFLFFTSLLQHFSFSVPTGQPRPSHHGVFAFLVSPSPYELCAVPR
METHOD NOTES: Inhibition of CYP2D6 in human liver microsomes at 1 uM preincubated for 5 mins followed by NADPH addition by LC-MS/MS analysis relative to control
Format: ADME, Microsome
The class of a record is decided solely by its measured inhibition at 1 µM; consult low class: < 7%; middle class: ≥ 7% and < 40%; high class: ≥ 40%

Consider C[C@@H](NCC1CN(c2cccc(OCC(=O)O)c2)c2ccccc2O1)c1cccc2ccccc12 (stereo partly specified) . To which inhibition at 1 µM class does it belong?
low class

Next:
Category lookup for the molecule C[C@@H](NCC1CN(c2ccccc2)c2ccccc2O1)c1cccc2ccccc12 (mixture of isomers; form 1)
high class

Band for C[C@@H](NC[C@H]1C[C@H](c2cccc(C(=O)O)c2)c2ccccc2O1)c1cccc2ccccc12 ?
middle class

Tag the class for C[C@@H](NC[C@H]1C[C@@H](c2ccc(F)c(C(=O)O)c2)c2ccccc2O1)c1cccc2ccccc12
low class

Please indicate the class for Cc1ccc([C@@H]2C[C@H](CN[C@H](C)c3cccc4ccccc34)Oc3ccccc32)cc1C(=O)O.Cl based on its inhibition at 1 µM.
low class

----------
METHOD NOTES: Clearance in Sprague-Dawley rat at 10 mg/kg, po administered as solution measured upto 24 hrs by LC-MS/MS analysis
Assay type: ADME, organism-based
STUDY CONDITIONS: in vivo
READOUT: CL/F (mL/min/kg)
Numbers only, in mL/min/kg.

What CL/F value was documented for this compound, Cc1ccc([C@@H]2C[C@H](CN[C@H](C)c3cccc4ccccc34)Oc3ccccc32)cc1C(=O)O.Cl ?
6

----------
METHOD NOTES: Plasma clearance in Sprague-Dawley rat at 1 mg/kg, iv measured upto 24 hrs by LC/MS-MS analysis
Assay type: ADME, organism-based
READOUT: clearance (mL/min/kg)
One number for each entry, in mL/min/kg.

Which value of clearance has been reported for Cc1ccc([C@@H]2C[C@H](CN[C@H](C)c3cccc4ccccc34)Oc3ccccc32)cc1C(=O)O.Cl in the records?
4

----------
MEASURED ON: UniProt:Q12809
Sequence (Q12809 whole entry): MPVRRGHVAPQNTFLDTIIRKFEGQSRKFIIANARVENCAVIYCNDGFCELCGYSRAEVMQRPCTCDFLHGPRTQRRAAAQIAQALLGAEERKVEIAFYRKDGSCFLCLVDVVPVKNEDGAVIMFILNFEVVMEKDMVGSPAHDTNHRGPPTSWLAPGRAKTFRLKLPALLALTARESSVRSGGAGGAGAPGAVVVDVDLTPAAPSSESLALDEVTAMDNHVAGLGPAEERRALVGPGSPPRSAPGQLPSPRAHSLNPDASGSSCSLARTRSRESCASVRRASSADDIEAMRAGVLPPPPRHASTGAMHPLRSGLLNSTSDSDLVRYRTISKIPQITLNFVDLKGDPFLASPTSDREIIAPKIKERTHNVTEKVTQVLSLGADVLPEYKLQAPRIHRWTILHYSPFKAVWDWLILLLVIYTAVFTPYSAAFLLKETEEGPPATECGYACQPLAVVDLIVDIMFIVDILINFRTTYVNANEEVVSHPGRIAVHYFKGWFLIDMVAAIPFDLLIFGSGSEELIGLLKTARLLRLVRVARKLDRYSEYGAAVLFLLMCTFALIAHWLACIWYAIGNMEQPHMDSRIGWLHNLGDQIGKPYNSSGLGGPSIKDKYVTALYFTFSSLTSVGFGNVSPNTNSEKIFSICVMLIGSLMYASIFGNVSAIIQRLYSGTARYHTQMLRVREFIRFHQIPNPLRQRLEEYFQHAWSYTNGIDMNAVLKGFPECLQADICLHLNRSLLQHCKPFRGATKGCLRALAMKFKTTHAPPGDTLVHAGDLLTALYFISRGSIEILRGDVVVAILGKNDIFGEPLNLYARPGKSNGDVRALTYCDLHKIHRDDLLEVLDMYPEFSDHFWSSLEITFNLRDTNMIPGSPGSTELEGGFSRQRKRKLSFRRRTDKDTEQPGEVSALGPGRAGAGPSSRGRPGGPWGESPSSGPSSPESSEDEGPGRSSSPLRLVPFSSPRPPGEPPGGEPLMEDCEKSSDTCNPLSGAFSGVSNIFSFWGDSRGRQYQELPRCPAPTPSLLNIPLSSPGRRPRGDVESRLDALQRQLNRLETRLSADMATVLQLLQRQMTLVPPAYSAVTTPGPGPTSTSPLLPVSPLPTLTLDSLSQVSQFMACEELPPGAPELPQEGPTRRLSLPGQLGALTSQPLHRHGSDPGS
METHOD NOTES: Inhibition of hERG at 10 uM relative to control
Assay type: toxicity
Answer each item with its documented inhibition at 10 µM.
Numbers only, in %.

Example compounds with recorded inhibition at 10 µM:
# get_value(readout= inhibition at 10 µM, system= UniProt:Q12809) for Cc1cc(C(=O)O)cc([C@@H]2C[C@H](CN[C@H](C)c3cccc4ccccc34)Oc3ccccc32)c1
6

Form field: inhibition at 10 µM recorded for Cc1ccc([C@@H]2C[C@H](CN[C@H](C)c3cccc4ccccc34)Oc3ccccc32)cc1C(=O)O.Cl with UniProt:Q12809 (enter value)
4

Report inhibition at 10 µM for C[C@@H](NCC1CN(c2ccc(C(=O)O)cc2)c2ccccc2O1)c1cccc2ccccc12 (stereo partly drawn) tested on UniProt:Q12809.
-43

Param readout = inhibition at 10 µM; param system = UniProt:Q12809; param query = COc1ccc([C@@H]2C[C@H](CN[C@H](C)c3cccc4ccccc34)Oc3ccccc32)cc1C(=O)O ; response: value
-4

Record C[C@@H](NCC1CN(c2cccc(OCC(=O)O)c2)c2ccccc2O1)c1cccc2ccccc12 (stereo partly drawn) : what is its inhibition at 10 µM with UniProt:Q12809?
66

Need inhibition at 10 µM for each of these compounds.
1. C[C@@H](NCC1CN(C)c2ccccc2O1)c1cccc2ccccc12 (stereo partly drawn)
2. C[C@@H](NCC1CN(c2ccccc2)c2ccccc2O1)c1cccc2ccccc12 (mixture of isomers; form 1)
3. Cc1ccc([C@@H]2C[C@@H](CN[C@H](C)c3cccc4ccccc34)Oc3ccccc32)cc1C(=O)O

42
26
-1
